System: U2OS
Assay: Multiplex assay against U2OS
Type: toxicity, cell-based
Conditions: human, 12 h, 10 µM, compound concentration 10 uM, replicate 1
Exercise: for every item that follows, state its recorded Population Membrane Permeable-Phenotype (%).
Numbers only, in %.

Field: example entries. Status: answers known.
- Compound: "C[C@@H](NCCCc1cccc(C(F)(F)F)c1)c1cccc2ccccc12.Cl [CINACALCET HYDROCHLORIDE]"
  Data value: 22
- Compound: "C=CC(=O)Nc1cccc(C(=O)Nc2ccc(Nc3cc(-c4[nH]c(SC)nc4C)ccn3)cc2)c1"
  Data value: 3
- Compound: "CN1CCC[C@@H]1CCO[C@](C)(c1ccccc1)c1ccc(Cl)cc1.O=C(O)/C=C/C(=O)O [CLEMASTINE FUMARATE]"
  Data value: 13
- Compound: "OC1(c2ccc(Cl)cc2)CCN(Cc2c[nH]c3ccccc23)CC1"
  Data value: 10
- Compound: "Cn1cc(-c2[nH]c3cc(NC(=O)[C@H](N)C4CCCCC4)cc4c3c2C=NNC4=O)cn1"
  Data value: 7
- Compound: "C=CC(=O)Nc1cc2c(Nc3ccc(F)c(Cl)c3)ncnc2cc1OCCCN1CCOCC1.Cl.Cl [CANERTINIB DIHYDROCHLORIDE]"
  Data value: 38
- Compound: "CC[C@H](C)C(=O)O[C@H]1C[C@@H](C)C=C2C=C[C@H](C)[C@H](CC[C@@H]3C[C@@H](O)CC(=O)O3)[C@H]21 [LOVASTATIN]"
  Data value: 9
- Compound: "Cc1nc(-c2cn3c(n2)-c2ccc(-c4cnn(C(C)(C)C(N)=O)c4)cc2OCC3)n(C(C)C)n1 [TASELISIB]"
  Data value: 12

Below is a list of compounds. For each, state its recorded Population Membrane Permeable-Phenotype (%).
1. Cc1nc(-c2ccc(-c3ccc(C(=O)N4CCc5cc6c(cc54)C4(CCN(C)CC4)CO6)cc3)c(C)c2)no1 [SB-224289]
2. CN1CCN(c2ccc(OC(F)(F)F)c(Nc3ncc4c(n3)-c3c(c(C(N)=O)nn3CCO)CC4)c2)CC1 [ONVANSERTIB]
3. CN(C)C(=O)/C(C#N)=C/c1ccc(-c2nc3cnc4[nH]ccc4c3n2C2CCCCC2)o1
4. Cc1c(-c2ccc(O)cc2)n(Cc2ccc(OCCN3CCCCCC3)cc2)c2ccc(O)cc12 [BAZEDOXIFENE]
5. CC(C)(O)CNc1ncc(-c2ccnc(Nc3ccnc(Cl)c3)n2)c(CC2CC2)n1
6. COc1cc2nccc(Oc3ccc(NC(=O)Nc4cc(C)on4)c(Cl)c3)c2cc1OC.O
7. CNc1nc(NCc2ccc(NS(C)(=O)=O)cc2Cl)cc(-c2ccccn2)n1
8. CN1CCN(CCOc2cc(OC3CCOCC3)c3c(Nc4c(Cl)ccc5c4OCO5)ncnc3c2)CC1 [SARACATINIB]

1. 45
2. 3
3. 12
4. 23
5. 24
6. 25
7. 5
8. 29

----------
Tested on: HEK-293T
Test: Multiplex assay against HEK293T
Type: toxicity, cell-based
Details: human, 48 h, 1 µM, compound concentration 1 uM, replicate 2
Kind request: treat 6% as inclusive, so Population Membrane Permeable-Phenotype (%) at 6% or higher is YES, anything lower is NO.

- Compound: "CC(C)NCC(O)COc1ccc(CCOCC2CC2)cc1.Cl (stereo not drawn) [BETAXOLOL HYDROCHLORIDE]"
  Label value: "NO"
- Compound: "C=CC(=O)Nc1cccc(C(=O)Nc2ccc(Nc3cc(-c4[nH]c(SC)nc4C)ccn3)cc2)c1"
  Label value: "YES"
- Compound: "CC(C)(O)CNc1ncc(-c2ccnc(Nc3ccnc(Cl)c3)n2)c(CC2CC2)n1"
  Label value: "YES"
- Compound: "O=C1NCN(c2ccccc2)C12CCN(CCCOc1ccc(F)cc1)CC2 [SPIRAMIDE]"
  Label value: "YES"
- Compound: "COc1ncc(-c2ccc3nccc(-c4ccnnc4)c3c2)cc1NS(=O)(=O)c1ccc(F)cc1F"
  Label value: "NO"

Is it the case that Cc1[nH]c(/C=C2\C(=O)Nc3ccc(S(=O)(=O)N(C)c4cccc(Cl)c4)cc32)c(C)c1C(=O)N1CCN(C)CC1 has Population Membrane Permeable-Phenotype (%) reaching or exceeding 6%? YES
